Below: a set of entries, each annotated with reported Uterine Wt. (% Inc.).
tested on: female Sprague Dawley rats; test: Uterine wet weight in the post-menopausal (ovariectomized rat) model, 4 days of oral dosing; assay type: in vivo; conditions: 0.1 mg/kg PO; % increase versus the ovariectomized controls; * p<0.05
Dear colleague, please return just the value in %, with no unit written.

In the examples that follow, each entry is paired with its recorded Uterine Wt. (% Inc.).
The measured Uterine Wt. (% Inc.) associated with CC(C)COC(=O)c1ccc2c(C(=O)c3ccc(OCCN4CCCCC4)cc3)c(-c3ccc(O)cc3)sc2c1 reads 11.8

The measured Uterine Wt. (% Inc.) associated with C#Cc1ccc2c(C(=O)c3ccc(OCCN4CCCCC4)cc3)c(-c3ccc(O)cc3)sc2c1 reads 14.3

The measured Uterine Wt. (% Inc.) associated with CCCCOC(=O)c1ccc2c(C(=O)c3ccc(OCCN4CCCCC4)cc3)c(-c3ccc(O)cc3)sc2c1 reads 19.4

The measured Uterine Wt. (% Inc.) associated with Cl.O=C(O)c1ccc2c(C(=O)c3ccc(OCCN4CCCCC4)cc3)c(-c3ccc(O)cc3)sc2c1 reads 18.8

Kindly review the next molecule as well.
The measured Uterine Wt. (% Inc.) associated with CC(=O)c1ccc2c(C(=O)c3ccc(OCCN4CCCCC4)cc3)c(-c3ccc(O)cc3)sc2c1 reads 18.8

====

tested on: Uterine Eosinophil Peroxidase (EPO); experiment: Uterine Eosinophil Peroxidase (EPO) Assay in ovariectomized rats; type: in vivo; design: unit not given here; settings: 10 mg/kg PO, Vmaximum, * p<0.05
reported.metric: Uterine EPO (Vmax)
Give only the figure.

In the examples that follow, each entry is paired with its recorded Uterine EPO (Vmax).
The measured Uterine EPO (Vmax) associated with CCCCOC(=O)c1ccc2c(C(=O)c3ccc(OCCN4CCCCC4)cc3)c(-c3ccc(O)cc3)sc2c1 [Example 2] reads 4.8

The measured Uterine EPO (Vmax) associated with CC(=O)c1ccc2c(C(=O)c3ccc(OCCN4CCCCC4)cc3)c(-c3ccc(O)cc3)sc2c1 [Example 5] reads 5.4

The measured Uterine EPO (Vmax) associated with CC(C)COC(=O)c1ccc2c(C(=O)c3ccc(OCCN4CCCCC4)cc3)c(-c3ccc(O)cc3)sc2c1 [Example 3] reads 4.8

The measured Uterine EPO (Vmax) associated with COC(=O)c1ccc2c(C(=O)c3ccc(OCCN4CCCCC4)cc3)c(-c3ccc(O)cc3)sc2c1.Cl [Example 1] reads 7.5

The measured Uterine EPO (Vmax) associated with Cl.O=C(O)c1ccc2c(C(=O)c3ccc(OCCN4CCCCC4)cc3)c(-c3ccc(O)cc3)sc2c1 [Example 4] reads 3.6

Others:
The measured Uterine EPO (Vmax) associated with C#Cc1ccc2c(C(=O)c3ccc(OCCN4CCCCC4)cc3)c(-c3ccc(O)cc3)sc2c1 [Example 6] reads 4.8

====

system: MCF-7 breast adenocarcinoma cells (ATCC HTB 22); experiment: MCF-7 Proliferation Assay (tritiated thymidine uptake); type: cell-based; conditions: Homo sapiens, MCF7; MCF-7 cells, 48 hours with drug, tritiated thymidine pulse 4 hours
Below: a set of entries, each annotated with reported pIC50.
// pIC50 here means minus log10 of the molar concentration (mol/L)

In the examples that follow, each entry is paired with its recorded pIC50.
Reported pIC50 (MCF-7 breast adenocarcinoma cells (ATCC HTB 22)) for entry COC(=O)c1ccc2c(C(=O)c3ccc(OCCN4CCCCC4)cc3)c(-c3ccc(O)cc3)sc2c1.Cl [Example 1, Hydrochloride] is 7.40

Reported pIC50 (MCF-7 breast adenocarcinoma cells (ATCC HTB 22)) for entry CCCCOC(=O)c1ccc2c(C(=O)c3ccc(OCCN4CCCCC4)cc3)c(-c3ccc(O)cc3)sc2c1 [Example 2] is 7.35

Reported pIC50 (MCF-7 breast adenocarcinoma cells (ATCC HTB 22)) for entry C#Cc1ccc2c(C(=O)c3ccc(OCCN4CCCCC4)cc3)c(-c3ccc(O)cc3)sc2c1 [Example 6] is 7.70

Kindly review the next compound as well.
Reported pIC50 (MCF-7 breast adenocarcinoma cells (ATCC HTB 22)) for entry CC(=O)c1ccc2c(C(=O)c3ccc(OCCN4CCCCC4)cc3)c(-c3ccc(O)cc3)sc2c1 [Example 5] is 7.22
